Assay: Catalase activity, conversion of H2O2 to oxygen, polarographic oxygen electrode (Example 2)
Assay type: biochemical
Conditions: relative to C7 (C7 = 100)
I'd appreciate it if you could supply Catalase rate values for the items below.

(Q) Return Catalase rate for the following molecule: CC(=O)[O][Mn]1[O]c2c(F)cccc2C=NCCN=Cc2cccc(F)c2[O]1
(A) 128

(Q) Using known records, supply Catalase rate for CCOc1cccc2c1[O][Mn]([Cl])[O]c1c(cccc1OCC)C=NCCN=C2
(A) 159

(Q) // fetch Catalase rate given entry COc1cccc2c1[O][Mn]([O]C(C)=O)[O]c1c(cccc1OC)C=Nc1ccccc1N=C2
(A) 485

(Q) Assign Catalase rate to the following record: COc1cc2c(c(OC)c1)[O][Mn]([O]C(C)=O)[O]c1c(cc(OC)cc1OC)C=NCCN=C2
(A) 231

(Q) Provide only the value of recorded Catalase rate for CC(=O)[O][Mn]1[O]c2ccccc2C=Nc2cccnc2N=Cc2ccccc2[O]1
(A) 446

(Q) Indicate the recorded Catalase rate value for this molecule: COc1cccc2c1[O][Mn]([Cl])[O]c1c(cccc1OC)C=Nc1ncccc1N=C2
(A) 465
